Every entry's value here was drawn from ChEMBL document CHEMBL6182944.

- SYSTEM: Multidrug and toxin extrusion protein 2 (Homo sapiens, UniProt Q86VL8)
- Sequence (Q86VL8 whole entry): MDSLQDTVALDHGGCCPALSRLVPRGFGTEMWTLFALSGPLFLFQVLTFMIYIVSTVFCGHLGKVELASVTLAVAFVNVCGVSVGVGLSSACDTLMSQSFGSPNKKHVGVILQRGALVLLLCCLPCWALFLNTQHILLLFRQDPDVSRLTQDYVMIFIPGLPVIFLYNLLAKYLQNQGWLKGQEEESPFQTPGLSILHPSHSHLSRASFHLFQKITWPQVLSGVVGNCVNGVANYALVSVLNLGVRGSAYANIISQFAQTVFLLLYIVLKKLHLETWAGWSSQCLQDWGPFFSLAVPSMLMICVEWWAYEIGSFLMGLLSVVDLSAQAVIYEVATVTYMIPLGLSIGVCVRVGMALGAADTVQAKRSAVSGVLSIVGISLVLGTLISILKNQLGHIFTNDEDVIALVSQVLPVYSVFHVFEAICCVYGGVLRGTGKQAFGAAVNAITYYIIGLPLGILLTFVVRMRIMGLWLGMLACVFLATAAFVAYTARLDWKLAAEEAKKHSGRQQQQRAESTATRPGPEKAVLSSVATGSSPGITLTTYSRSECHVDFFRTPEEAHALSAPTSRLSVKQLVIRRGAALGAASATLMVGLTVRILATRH
- ASSAY NOTES: Substrate activity at MATE2-K (unknown origin) expressed in HEK293 cells assessed as Vmax (maximum transport velocity) by HPLC-MS/MS analysis
- Type: cell-based
Provide the reported Vmax of each item.
Please reply with the bare figure in pmol/min and do not write the unit itself.

Request: For CN(C)CCc1c[nH]c2ccc(C[C@@H]3COC(=O)N3)cc12 , what is its reported Vmax?
Result: 992

Request: Which Vmax value is on record for CNC[C@H](O)c1cccc(O)c1 ?
Result: 776

Request: // Vmax lookup, key: NC[C@H](O)c1ccc(O)c(O)c1 [NOREPINEPHRINE]
Result: 673

Request: Give its Vmax value. Item: CCN1CCCC1CNC(=O)c1cc(S(N)(=O)=O)ccc1OC (stereo unspecified) [SULPIRIDE]
Result: 1025

Request: Entry Cc1ncc(CO)c(CN)c1O : reported Vmax = ?
Result: 989.5

Request: Please give the measured Vmax for this compound: CN(C)CCc1c[nH]c2ccc(CC3COC(=O)N3)cc12 (racemic)
Result: 740

----------
Give measured Ratio for each item. Keep answers brief.
- SYSTEM: Multidrug and toxin extrusion protein 1 (Homo sapiens, UniProt Q96FL8)
- Sequence (Q96FL8 whole entry): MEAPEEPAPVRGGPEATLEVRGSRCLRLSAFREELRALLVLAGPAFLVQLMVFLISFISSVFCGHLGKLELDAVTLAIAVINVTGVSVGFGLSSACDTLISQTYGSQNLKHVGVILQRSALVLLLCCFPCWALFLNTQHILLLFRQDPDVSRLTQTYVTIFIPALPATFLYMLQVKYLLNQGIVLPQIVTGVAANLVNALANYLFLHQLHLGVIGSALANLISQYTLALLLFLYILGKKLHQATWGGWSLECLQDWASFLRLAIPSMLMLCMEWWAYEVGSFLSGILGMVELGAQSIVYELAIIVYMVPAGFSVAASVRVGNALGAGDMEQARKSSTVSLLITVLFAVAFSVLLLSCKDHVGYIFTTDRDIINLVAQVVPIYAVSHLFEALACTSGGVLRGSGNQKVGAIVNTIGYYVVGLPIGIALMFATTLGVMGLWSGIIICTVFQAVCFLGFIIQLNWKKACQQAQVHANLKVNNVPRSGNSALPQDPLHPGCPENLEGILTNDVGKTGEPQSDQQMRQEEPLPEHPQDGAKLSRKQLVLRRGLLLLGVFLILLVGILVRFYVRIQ
- ASSAY NOTES: Substrate activity at MATE1 (unknown origin) expressed in HEK293 cells assessed as ratio of uptake by the enantiomer with higher value to enantiomer with lower value at 2.5 uM measured after 1 min by HPLC-MS/MS analysis
- Assay type: cell-based
- MEASUREMENT SETUP: hek293, 1 min

Request: Param item = CC(C)(C)NCC(O)c1ccc(O)c(CO)c1 (racemic) ; retrieve measured Ratio.
Result: > 1

Request: Any idea what Ratio was measured for COc1ccc(C(CN(C)C)C2(O)CCCCC2)cc1 (racemic) ?
Result: > 1

Request: May I ask what Ratio has been recorded for NC1CONC1=O (racemic) ?
Result: 1

Request: Data request, read-out Ratio, for Cc1cccc(C)c1OCC(C)N (racemic)
Result: > 1

Request: Give the measured Ratio of CNCC(O)c1cccc(O)c1 (racemic) .
Result: > 1

Request: Dear colleague, I am looking for the recorded Ratio of the following compound: O=C(O[C@H]1C[N+]2(CCCOc3ccccc3)CCC1CC2)C(O)(c1cccs1)c1cccs1.[Br-] (mixture of isomers) [ACLIDINIUM BROMIDE]
Result: > 1

Request: Recorded Ratio for CNCCC(Oc1ccccc1C)c1ccccc1 (racemic) , please?
Result: 1

Request: Ratio lookup needed for C#CCNC1CCc2ccccc21 (racemic) , thanks.
Result: > 1

Request: Recorded Ratio of COc1ccccc1OCCNCC(O)COc1cccc2[nH]c3ccccc3c12 (racemic) , please.
Result: 1

Request: For the compound CN(C)CCCC1(c2ccc(F)cc2)OCc2cc(C#N)ccc21 (racemic) , what Ratio is on record?
Result: > 1

Request: Which value of Ratio has been reported for CCN1CCCC1CNC(=O)c1cc(S(=O)(=O)CC)c(N)cc1OC (racemic) [AMISULPRIDE] in the records?
Result: > 1

Request: What value of Ratio has been reported for the following compound? CN(C)CCC=C1c2ccccc2COc2ccccc21 [DOXEPIN]
Result: 1

----------
- SYSTEM: MATE2-K (Homo sapiens, UniProt Q86VL8)
- ASSAY NOTES: in vitro
- MEASUREMENT SETUP: HEK293 cells expressing MATE2-K
Task for the reader: assign each of the following molecules its reported uptake ratio at 1 min, 2.5 µM.

Request: Bench note: what uptake ratio at 1 min, 2.5 µM did [H]/N=C(\N/C(=N/[H])Nc1ccc(Cl)cc1)NC(C)C show?
Result: > 2

Request: Requested read-out: uptake ratio at 1 min, 2.5 µM. Entry: Cn1nnc2c(C(N)=O)ncn2c1=O [TEMOZOLOMIDE]
Result: < 2

Request: Param item = N=C(N)NCCCCN ; retrieve measured uptake ratio at 1 min, 2.5 µM.
Result: < 2

Request: So what's the measured uptake ratio at 1 min, 2.5 µM for this one? CCCCCCCN(CC)CCCC(O)c1ccc(NS(C)(=O)=O)cc1 (stereo not given) [IBUTILIDE]
Result: < 2

Request: Which uptake ratio at 1 min, 2.5 µM is listed for NC(=O)C1(N2CCCCC2)CCN(CCCC(=O)c2ccc(F)cc2)CC1 ?
Result: < 2

----------
- SYSTEM: Multidrug and toxin extrusion protein 2 (Homo sapiens)
- ASSAY NOTES: Substrate activity at MATE2-K (unknown origin) expressed in HEK293 cells assessed as Vmax (maximum transport velocity) by HPLC-MS/MS analysis
- Type: cell-based
Please go through the items and note down their Vmax.
Quick note: give the figure in pmol/min, leave out the unit.

Request: Please provide the recorded Vmax for CN[C@@H]1CCc2[nH]c3ccc(C(N)=O)cc3c2C1 , tested on Multidrug and toxin extrusion protein 2 (Homo sapiens).
Result: 869

Request: Provide the documented Vmax with Multidrug and toxin extrusion protein 2 (Homo sapiens) as the system for [H]/N=C(/N)N/C(=N/[H])NCCc1ccccc1
Result: 1361

Request: Give recorded Vmax with Multidrug and toxin extrusion protein 2 (Homo sapiens) for the following compound: CC(=O)OC(C)C[N+](C)(C)C (centres undefined)
Result: 1240

Request: What reported Vmax corresponds to NCCc1ccc(O)cc1 on Multidrug and toxin extrusion protein 2 (Homo sapiens)?
Result: 2868

----------
- SYSTEM: MATE2-K (Homo sapiens)
- Sequence (Q86VL8 whole entry): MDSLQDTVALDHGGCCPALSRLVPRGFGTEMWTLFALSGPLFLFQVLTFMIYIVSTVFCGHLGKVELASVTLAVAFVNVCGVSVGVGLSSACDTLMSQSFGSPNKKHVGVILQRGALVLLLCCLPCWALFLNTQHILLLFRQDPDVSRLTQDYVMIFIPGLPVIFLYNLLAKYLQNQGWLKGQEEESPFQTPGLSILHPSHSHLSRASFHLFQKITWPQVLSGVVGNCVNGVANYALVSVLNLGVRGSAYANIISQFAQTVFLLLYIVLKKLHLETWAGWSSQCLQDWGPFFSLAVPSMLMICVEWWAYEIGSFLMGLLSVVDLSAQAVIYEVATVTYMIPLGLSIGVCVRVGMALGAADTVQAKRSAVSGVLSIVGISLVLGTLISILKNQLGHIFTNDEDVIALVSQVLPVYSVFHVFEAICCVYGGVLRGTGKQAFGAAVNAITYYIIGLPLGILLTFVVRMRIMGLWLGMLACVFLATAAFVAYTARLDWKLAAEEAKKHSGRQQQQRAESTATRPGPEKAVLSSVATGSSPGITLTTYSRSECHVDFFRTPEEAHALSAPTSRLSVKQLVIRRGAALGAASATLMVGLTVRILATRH
- ASSAY NOTES: in vitro
- MEASUREMENT SETUP: HEK293 cells expressing MATE2-K
RESULT TYPE: uptake ratio at 1 min, 2.5 µM

Request: Using the record for C[N+]12CCC(CC1)C(OC(=O)C(O)(c1ccccc1)c1ccccc1)C2 (stereo unspecified) , report its uptake ratio at 1 min, 2.5 µM.
Result: < 2

Request: Can you share its uptake ratio at 1 min, 2.5 µM? I mean this compound: CC(C)(C)NCC(O)c1ccc(O)c(CO)c1 (racemic)
Result: > 2

Request: State the recorded uptake ratio at 1 min, 2.5 µM for this entry: CC(C)NCC(O)c1ccc(NS(C)(=O)=O)cc1 (stereo unspecified)
Result: < 2

Request: Tell me the measured uptake ratio at 1 min, 2.5 µM of NCCCCNCCCN , please.
Result: < 2

Request: Would you kindly share the measured uptake ratio at 1 min, 2.5 µM for CC(CCc1ccc(O)cc1)NCCc1ccc(O)c(O)c1 (stereo unspecified) ?
Result: > 2

Request: Entry CC1(C)N=C(N)N=C(N)N1c1ccc(Cl)cc1 : reported uptake ratio at 1 min, 2.5 µM = ?
Result: > 2
